# assaySystem: furin, P09958;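 also: purified furin at 1:10 enzyme:substrate in 50 mM HEPES pH 7.5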
# Sequence (P09958 whole entry): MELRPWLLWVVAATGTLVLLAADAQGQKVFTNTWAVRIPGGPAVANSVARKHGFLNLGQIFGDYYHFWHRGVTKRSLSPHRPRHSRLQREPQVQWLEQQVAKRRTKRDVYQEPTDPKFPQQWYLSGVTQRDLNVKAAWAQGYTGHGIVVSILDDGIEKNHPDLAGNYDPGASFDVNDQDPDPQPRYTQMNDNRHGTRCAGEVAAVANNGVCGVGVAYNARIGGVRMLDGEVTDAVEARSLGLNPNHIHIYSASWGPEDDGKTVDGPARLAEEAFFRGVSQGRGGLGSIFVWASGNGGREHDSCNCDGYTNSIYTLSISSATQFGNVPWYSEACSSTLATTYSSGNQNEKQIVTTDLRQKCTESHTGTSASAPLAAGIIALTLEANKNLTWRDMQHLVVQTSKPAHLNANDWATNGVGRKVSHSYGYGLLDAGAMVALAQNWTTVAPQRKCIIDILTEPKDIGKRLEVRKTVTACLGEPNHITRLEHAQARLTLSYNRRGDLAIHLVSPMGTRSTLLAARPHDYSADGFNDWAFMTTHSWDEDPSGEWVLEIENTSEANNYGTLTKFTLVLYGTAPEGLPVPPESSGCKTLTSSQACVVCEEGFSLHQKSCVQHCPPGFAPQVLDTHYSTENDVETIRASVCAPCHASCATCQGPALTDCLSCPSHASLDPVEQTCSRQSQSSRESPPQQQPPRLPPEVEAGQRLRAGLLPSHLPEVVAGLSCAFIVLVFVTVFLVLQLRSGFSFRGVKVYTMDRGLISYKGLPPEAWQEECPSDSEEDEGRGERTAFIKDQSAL
# runDescription: furin cleavage Z-score vs untreated control; higher = more cleavage, active = 3.5 or more, inactive = 1 or less, 8 variable residues between constant flanks
# conditionSet: 30 min
This is one part of the list. The true hit rate is not given.
Recorded furin cleavage Z-score for the following sequences

constructSequence	furin cleavage Z-score
CAHIARALRNAGNASASA [FS-662]	0.623 (inactive)
CAPTDPRRRSAGNASASA [HC215]	0.563 (inactive)
CAALGINAVAAGNASASA [HC865]	-1.14 (inactive)
CAAEARKNRPAGNASASA [FS-1508]	-1.59 (inactive)
CAPPWRLRRSAGNASASA [FS-1383]	7.39 (active)
CASVLCECYDAGNASASA [HC918]	-0.91 (inactive)
CAITYSTYGKAGNASASA [HC806]	1.03
CAPPRRRRRSAGNASASA [FS-948]	7.37 (active)
CASTPCSAHNAGNASASA [HC2581]	-0.895 (inactive)
CAHAYRPGRRAGNASASA [FS-247]	1.65
CADLSRPSRSAGNASASA [FS-757]	2.66
CAECTTPCSGAGNASASA [HC1144]	-0.582 (inactive)
CADITKLLLAAGNASASA [HC604]	0.0126 (inactive)
CAGLRRRRRFAGNASASA [FS-531]	7.24 (active)
CAPPRRRARSAGNASASA [FS-72]	7.57 (active)
CASAPSLKATAGNASASA [HC1264]	-1.74 (inactive)
CAREARGSSRAGNASASA [FS-2907]	-1.18 (inactive)
CANTRPPLGNAGNASASA [HC431]	0.451 (inactive)
CAALGRKARAAGNASASA [FS-115]	5.64 (active)
CALIHLHQNIAGNASASA [HC505]	0.884 (inactive)
CARNSTGLYHAGNASASA [HC258]	-0.846 (inactive)
CALVAEEDERAGNASASA [HC1290]	-0.546 (inactive)
CALYFQSGTVAGNASASA [TV3]	-0.81 (inactive)
CAEEVTSTWVAGNASASA [HC2172]	0.598 (inactive)
CAYEMEECSQAGNASASA [HC1789]	1.37
CASHSRVRRAAGNASASA [FS-294]	7.37 (active)
CAMNECSQHLAGNASASA [HC1701]	1.3
CAMSTNPKPQAGNASASA [HC161]	-0.709 (inactive)
CAGGDIYHSVAGNASASA [HC1649]	-0.802 (inactive)
CAHELRHRRHAGNASASA [FS-170]	11 (active)
